# Assayed target: T1, human collagen type I, acid soluble, extracted from placenta (Sigma C7774) (human, UniProt P02452 162-1218; P08123 80-1119)
# T1 construct: tissue extract, gelled and dried in wells; also called dried human collagen; h-Collagen
# T1 sequence (P02452 162-1218 limits assumed, chain 1 of 2): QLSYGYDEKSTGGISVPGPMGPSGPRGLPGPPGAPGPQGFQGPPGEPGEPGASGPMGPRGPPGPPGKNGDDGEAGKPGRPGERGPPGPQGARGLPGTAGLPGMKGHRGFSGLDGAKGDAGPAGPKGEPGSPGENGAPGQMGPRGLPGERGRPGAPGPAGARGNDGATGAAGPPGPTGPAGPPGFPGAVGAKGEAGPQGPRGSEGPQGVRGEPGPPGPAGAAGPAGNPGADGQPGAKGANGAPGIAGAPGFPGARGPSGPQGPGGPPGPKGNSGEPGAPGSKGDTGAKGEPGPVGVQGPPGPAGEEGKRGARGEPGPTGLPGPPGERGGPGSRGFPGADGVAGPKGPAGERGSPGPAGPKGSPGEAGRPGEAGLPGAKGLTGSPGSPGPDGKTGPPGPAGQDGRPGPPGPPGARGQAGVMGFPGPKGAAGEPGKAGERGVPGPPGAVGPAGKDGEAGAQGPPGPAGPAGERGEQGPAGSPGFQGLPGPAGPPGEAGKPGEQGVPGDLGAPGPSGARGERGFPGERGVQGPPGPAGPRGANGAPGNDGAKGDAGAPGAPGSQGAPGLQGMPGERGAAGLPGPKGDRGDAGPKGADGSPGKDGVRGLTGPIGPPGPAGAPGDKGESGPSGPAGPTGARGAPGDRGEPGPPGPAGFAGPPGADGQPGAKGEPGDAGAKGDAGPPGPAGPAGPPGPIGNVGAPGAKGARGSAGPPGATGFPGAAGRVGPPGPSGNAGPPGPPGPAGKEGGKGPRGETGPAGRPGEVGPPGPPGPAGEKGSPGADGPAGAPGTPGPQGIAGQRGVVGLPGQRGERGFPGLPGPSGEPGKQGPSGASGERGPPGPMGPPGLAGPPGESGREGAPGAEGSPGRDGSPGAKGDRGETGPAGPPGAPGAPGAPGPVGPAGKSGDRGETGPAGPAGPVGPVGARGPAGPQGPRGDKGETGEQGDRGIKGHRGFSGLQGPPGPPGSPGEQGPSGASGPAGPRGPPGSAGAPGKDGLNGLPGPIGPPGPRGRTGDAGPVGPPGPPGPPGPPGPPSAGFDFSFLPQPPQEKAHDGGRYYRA
# T1 sequence (P08123 80-1119 limits assumed, chain 2 of 2): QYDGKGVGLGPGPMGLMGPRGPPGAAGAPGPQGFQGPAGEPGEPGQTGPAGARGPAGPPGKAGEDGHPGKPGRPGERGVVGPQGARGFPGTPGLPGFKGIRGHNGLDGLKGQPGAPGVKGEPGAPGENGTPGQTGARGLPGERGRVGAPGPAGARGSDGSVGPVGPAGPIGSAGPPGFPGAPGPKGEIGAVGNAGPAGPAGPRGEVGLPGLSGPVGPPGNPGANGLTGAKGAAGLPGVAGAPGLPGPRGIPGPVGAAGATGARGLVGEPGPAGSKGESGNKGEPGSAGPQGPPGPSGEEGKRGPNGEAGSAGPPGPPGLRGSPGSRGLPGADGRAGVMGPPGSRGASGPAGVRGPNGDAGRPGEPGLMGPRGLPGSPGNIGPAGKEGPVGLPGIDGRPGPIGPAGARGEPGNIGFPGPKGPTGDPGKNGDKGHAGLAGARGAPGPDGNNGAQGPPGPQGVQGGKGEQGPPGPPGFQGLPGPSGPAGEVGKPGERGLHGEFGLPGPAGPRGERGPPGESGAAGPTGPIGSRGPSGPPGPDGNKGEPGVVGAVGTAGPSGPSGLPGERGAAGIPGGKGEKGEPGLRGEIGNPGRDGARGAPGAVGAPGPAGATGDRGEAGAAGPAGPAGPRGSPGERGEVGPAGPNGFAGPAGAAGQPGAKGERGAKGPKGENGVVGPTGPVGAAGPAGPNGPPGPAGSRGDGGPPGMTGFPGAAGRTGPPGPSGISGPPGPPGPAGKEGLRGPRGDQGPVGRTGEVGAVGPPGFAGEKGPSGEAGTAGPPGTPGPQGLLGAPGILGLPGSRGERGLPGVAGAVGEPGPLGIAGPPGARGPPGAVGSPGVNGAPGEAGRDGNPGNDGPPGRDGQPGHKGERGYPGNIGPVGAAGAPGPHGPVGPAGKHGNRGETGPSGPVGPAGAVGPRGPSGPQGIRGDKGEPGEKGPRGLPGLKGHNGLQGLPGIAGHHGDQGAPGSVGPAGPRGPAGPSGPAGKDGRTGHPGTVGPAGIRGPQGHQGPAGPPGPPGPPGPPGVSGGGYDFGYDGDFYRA
# Procedure text: dried collagen assay
Bridge positions count the residues as written; N and C are the ends. Square brackets hold non-standard residues; d marks the D form. Primed or numbered codes have the meaning given here. Ends that are not written are not given here. * marks the point of attachment. Gd^G = not defined here; Gd^T = not defined here; Gd^T″ = GdDTPA-thiourea; Cbz = O=C(OCc1ccccc1)*; Aib = CC(C)(N)C(=O)O
Lab note: cut-off is 50%. Strictly less in % bound is Fulfilled. Exactly 50% or more is Not fulfilled.

Binder | Label value
Cbz-GQWHCTTK(Gd^T″)FPHHYCLYG (disulfide 5-14 (inferred)) [Compound ID 926] | Not fulfilled
{Gd^G}-DWTCRGDEYTWHCNYE (disulfide 4-13 (inferred); not fully specified (C-terminus); reading uncertain) [Compound ID 822] | Fulfilled
{Gd^T}-DWTCSGDEYTWHCNY[Aib] (disulfide 4-13; not fully specified (C-terminus); reading uncertain) [Compound ID 850] | Not fulfilled
